# protocol: Phase 1 Stage 1 clinical pharmacokinetics of SC ZA co-administered with rHuPH20
# Assay type: in vivo, human
# recorded_conditions: human, serum, sc, […], Subj 77; ZA […] SC; inf […]; PH20 6000 U; read-out: AUC (0-inf)
measured_attribute: AUC(0-inf) (ng·h/mL)
Reply with just the number (in ng·h/mL).

Query block: Tell me the measured AUC(0-inf) of O=P(O)(O)C(O)(Cn1ccnc1)P(=O)(O)O [ZA] , please.
Result block: 678

* * *

# protocol: Phase 1 Stage 1 clinical pharmacokinetics of SC ZA co-administered with rHuPH20
# Assay type: in vivo, human
# recorded_conditions: human, serum, sc, ZA 0.5 mg SC + 24000 U rHuPH20; individual subjects
measured_attribute: CL/F (mL/min/kg)
The response must be a number in mL/min/kg with no trailing unit.

Query block: CL/F for O=P(O)(O)C(O)(Cn1ccnc1)P(=O)(O)O [ZA] ?
Result block: 2.35

* * *

# protocol: Phase 1 Stage 1 clinical pharmacokinetics of SC ZA co-administered with rHuPH20
# Assay type: in vivo, human
# recorded_conditions: human, serum, sc, serum; ZA 0.25 mg SC infusion + 24000 Units rHuPH20; 6 h post infusion; individual subjects; read-out: Zoledronic Acid Concentration
# Description: A pharmacokinetic study of zoledronic acid (ZA) co-administered with rHuPH20 in human subjects was conducted. […] Serum concentration of ZA was determined using a qualified LC-MS-MS assay after derivatization with diazomethane (Zhu, L S et al. (2006) Rapid Commun. […] The assay range was from 2.0 to 400 ng/mL with a lower limit of quantitation (LLOQ) at 2.0 ng/mL. […] Summary statistics (mean, standard deviation, and median) were calculated using JMP or Microsoft Excel.
measured_attribute: concentration at 6 h (ng/mL)
Give the number; ng/mL is assumed, so skip it.

Query block: Record request: concentration at 6 h value, item "O=P(O)(O)C(O)(Cn1ccnc1)P(=O)(O)O"
Result block: 1.2

* * *

# protocol: Phase 1 Stage 1 clinical pharmacokinetics of SC ZA co-administered with rHuPH20
# Type: in vivo, human
# recorded_conditions: human, serum, sc, serum; ZA 0.5 mg SC infusion + 24000 Units rHuPH20; 6 h post infusion; n=3; read-out: Median Conc.
measured_attribute: concentration at 6 h (ng/mL)
API: value field is a number in ng/mL; no unit string.

Query block: Any idea what its concentration at 6 h is? The compound is O=P(O)(O)C(O)(Cn1ccnc1)P(=O)(O)O [ZA]
Result block: 2.53

* * *

# protocol: Phase 1 Stage 1 clinical pharmacokinetics of SC ZA co-administered with rHuPH20
# Assay type: in vivo, human
# recorded_conditions: human, serum, sc, serum; ZA 1 mg SC infusion + 24000 Units rHuPH20; 6 h post infusion; n=3; read-out: Mean Conc.
measured_attribute: concentration at 6 h (ng/mL)
Your answer should be a plain number; it is taken to be in ng/mL.

Query block: Form field: reported concentration at 6 h of "O=P(O)(O)C(O)(Cn1ccnc1)P(=O)(O)O"
Result block: 4.9

* * *

# protocol: Phase 1 Stage 1 clinical pharmacokinetics of SC ZA co-administered with rHuPH20
# Assay type: in vivo, human
# recorded_conditions: human, serum; Subj 37; ZA 0.0791 mg/kg SC; inf 0.556 hr; PH20 24000 U; read-out: T½ λz (converted)
measured_attribute: half-life (h)
# value in h; strip the unit string

Query block: half-life for O=P(O)(O)C(O)(Cn1ccnc1)P(=O)(O)O [ZA] ?
Result block: 23.4

* * *

# protocol: Phase 1 Stage 1 clinical pharmacokinetics of SC ZA co-administered with rHuPH20
# Assay type: in vivo, human
# recorded_conditions: human, serum, sc, ZA 0.5 mg SC + 24000 U rHuPH20; mean, n=3; read-out: MRT
measured_attribute: MRT (h)
I only need the number, in h, no unit after it.

Query block: Query: MRT; subject: O=P(O)(O)C(O)(Cn1ccnc1)P(=O)(O)O [ZA]
Result block: 3.26

* * *

# protocol: Phase 1 Stage 1 clinical pharmacokinetics of SC ZA co-administered with rHuPH20
# Type: in vivo, human
# recorded_conditions: human, serum, sc, 0.0608 mg/kg, Subj 68; ZA 0.0608 mg/kg SC; inf […]; PH20 2880 U
measured_attribute: Cmax
Be sure to follow the number with its unit.

Query block: Report Cmax for O=P(O)(O)C(O)(Cn1ccnc1)P(=O)(O)O [ZA] please.
Result block: 144 ng/mL

* * *

# protocol: Phase 1 Stage 1 clinical pharmacokinetics of SC ZA co-administered with rHuPH20
# Format: in vivo, human
# recorded_conditions: human, serum, sc, serum; ZA 5 mg SC infusion + 24000 Units rHuPH20; 10 min post infusion; n=3; read-out: Mean Conc.
measured_attribute: concentration at 10 min (ng/mL)
Kindly provide the numeric value in ng/mL only, without the unit symbol.

Query block: Returns the measured concentration at 10 min for the input compound. Input: "O=P(O)(O)C(O)(Cn1ccnc1)P(=O)(O)O"
Result block: 110

* * *

# protocol: Phase 1 Stage 1 clinical pharmacokinetics of SC ZA co-administered with rHuPH20
# Assay type: in vivo, human
# recorded_conditions: human, serum, sc, ZA 2 mg SC + 24000 U rHuPH20; mean, n=3; read-out: Vss/F
measured_attribute: Vd/F (L/kg)
Report only the number, with the unit L/kg understood.

Query block: // query Vd/F value for entry "O=P(O)(O)C(O)(Cn1ccnc1)P(=O)(O)O"
Result block: 0.941

* * *

# protocol: Phase 1 Stage 1 clinical pharmacokinetics of SC ZA co-administered with rHuPH20
# Assay type: in vivo, human
# recorded_conditions: human, serum, sc, 0.0608 mg/kg, AUC (0-24 h), Subj 68; ZA 0.0608 mg/kg SC; inf […]; PH20 2880 U
measured_attribute: AUC(0-t) (ng·h/mL)
Kindly answer with a numeric value in ng·h/mL, unit omitted.

Query block: Given the compound "O=P(O)(O)C(O)(Cn1ccnc1)P(=O)(O)O" , what is its reported AUC(0-t)?
Result block: 503

* * *

# protocol: Phase 1 Stage 1 clinical pharmacokinetics of SC ZA co-administered with rHuPH20
# Assay type: in vivo, human
# recorded_conditions: human, serum, sc, 0.0717 mg/kg, Subj 67; ZA 0.0717 mg/kg SC; inf […]; PH20 2880 U; read-out: AUC (0-inf)
measured_attribute: AUC(0-inf) (ng·h/mL)
Answer format: numeric, ng·h/mL implied, no suffix.

Query block: // returns reported AUC(0-inf) for input "O=P(O)(O)C(O)(Cn1ccnc1)P(=O)(O)O"
Result block: 725

* * *

# protocol: Phase 1 Stage 1 clinical pharmacokinetics of SC ZA co-administered with rHuPH20
# Format: in vivo, human
# recorded_conditions: human, serum, sc, serum; ZA 2 mg SC infusion + 24000 Units rHuPH20; 24 h post infusion; n=3; read-out: Mean Conc.
measured_attribute: concentration at 24 h (ng/mL)
# output: bare number, implied unit ng/mL

Query block: concentration at 24 h lookup needed for O=P(O)(O)C(O)(Cn1ccnc1)P(=O)(O)O [ZA] , thanks.
Result block: 0.87

* * *

# protocol: Pharmacokinetics of ZA in pig serum after IV or SC infusion with or without rHuPH20 (LC-MS-MS, non-compartmental analysis)
# Type: in vivo
# recorded_conditions: female, Yorkshire, pig, serum, iv, […], absolute clearance by non-compartmental analysis of the IV dose (from Table 13), used for Study Groups 2 and 3; read-out: Serum CL (converted)
measured_attribute: clearance (mL/min/kg)
Output spec: scalar in mL/min/kg, unitless text.

Query block: Reported clearance, compound O=P(O)(O)C(O)(Cn1ccnc1)P(=O)(O)O [ZA] : ____
Result block: 7.34

* * *

# protocol: Phase 1 Stage 1 clinical pharmacokinetics of SC ZA co-administered with rHuPH20
# Type: in vivo, human
# recorded_conditions: human, serum, sc, ZA 5 mg SC + 24000 U rHuPH20; median, n=3; read-out: Vss/F
measured_attribute: Vd/F (L/kg)
Answer in L/kg, number only, no unit symbol.

Query block: Bench note: what Vd/F did "O=P(O)(O)C(O)(Cn1ccnc1)P(=O)(O)O" show?
Result block: 1.39

* * *

# protocol: Phase 1 Stage 1 clinical pharmacokinetics of SC ZA co-administered with rHuPH20
# Assay type: in vivo, human
# recorded_conditions: human, serum, sc, serum; ZA 0.25 mg SC infusion + 24000 Units rHuPH20; 0.5 h post infusion; individual subjects; read-out: Zoledronic Acid Concentration
measured_attribute: concentration at 0.5 h (ng/mL)
Kindly provide the numeric value in ng/mL only, without the unit symbol.

Query block: What does the record list as concentration at 0.5 h for "O=P(O)(O)C(O)(Cn1ccnc1)P(=O)(O)O" ?
Result block: 7.75

* * *

# protocol: Phase 1 Stage 1 clinical pharmacokinetics of SC ZA co-administered with rHuPH20
# Type: in vivo, human
# recorded_conditions: human, serum, sc, serum; ZA 0.25 mg SC infusion + 24000 Units rHuPH20; 2 h post infusion; individual subjects; read-out: Zoledronic Acid Concentration
measured_attribute: concentration at 2 h (ng/mL)
Report only the number, with the unit ng/mL understood.

Query block: Value lookup for concentration at 2 h; key = "O=P(O)(O)C(O)(Cn1ccnc1)P(=O)(O)O"
Result block: 5.42

Values from patent US20090311237A1
